test system: hepatitis C replicon; assay: hepatitis C replicon EC50 assay; type: cell-based; details: Hepatitis C virus; hepatitis C replicon; read-out: EC50
pEC50: −log10 of the molar value.

Molecule	pEC50
CC(C)n1c(O[C@@H]2C[C@H]3C(=O)N[C@]4(C(=O)NS(=O)(=O)C5(C)CC5)C[C@H]4/C=C\CCCCC[C@H](NC(=O)OC(C)(C)C)C(=O)N3C2)nc2c(-c3cscn3)cccc21 [Compound 129]	> 8.00
CC(C)n1c(O[C@@H]2C[C@H]3C(=O)N[C@]4(C(=O)NS(=O)(=O)N(C)C)C[C@H]4/C=C\CCCCC[C@H](NC(=O)OC(C)(C)C)C(=O)N3C2)nc2c(-c3nc(-c4ccc5c(c4)OCCO5)cs3)cccc21 [Compound 142]	7.00 to 8.00
COc1ccccc1Cc1csc(-c2cccc3c2nc(O[C@@H]2C[C@H]4C(=O)N[C@]5(C(=O)NS(=O)(=O)N(C)C)C[C@H]5/C=C\CCCCC[C@H](NC(=O)OC(C)(C)C)C(=O)N4C2)n3C(C)C)n1 [Compound 147]	> 8.00
CC(C)n1c(O[C@@H]2C[C@H]3C(=O)N[C@]4(C(=O)NS(=O)(=O)C5(C)CC5)C[C@H]4/C=C\CCCCC[C@H](NC(=O)OC(C)(C)C)C(=O)N3C2)nc2c(-c3nc(-c4ccc(F)cc4F)cs3)cccc21 [Compound 111]	7.00 to 8.00

###

tested on: hepatitis C replicon; assay: hepatitis C replicon EC50 assay; assay type: cell-based; details: Hepatitis C virus; hepatitis C replicon; read-out: EC50
pEC50: −log10 of the molar value.

Compound	pEC50
CC(C)(C)OC(=O)N[C@H]1CCCCC/C=C\[C@@H]2C[C@@]2(C(=O)NS(=O)(=O)C2(C)CC2)NC(=O)[C@@H]2C[C@@H](Oc3nc4cccc(-c5nc(C6CCCCC6)cs5)c4nc3C(F)(F)F)CN2C1=O [Compound 701]	< 7.00
CC(C)n1c(O[C@@H]2C[C@H]3C(=O)N[C@]4(C(=O)NS(=O)(=O)N(C)C)C[C@H]4/C=C\CCCCC[C@H](NC(=O)OC(C)(C)C)C(=O)N3C2)nc2c(-c3nc(-c4ccc(OC(F)(F)F)cc4)cs3)cccc21 [Compound 136]	< 7.00
CC(C)n1c(O[C@@H]2C[C@H]3C(=O)N[C@]4(C(=O)NS(=O)(=O)C5(C)CC5)C[C@H]4/C=C\CCCCC[C@H](NC(=O)O[C@@H]4C[C@@H]5C[C@@H]5C4)C(=O)N3C2)nc2c(-c3nc(Cc4ccccc4)cs3)cccc21 [Compound 166]	> 8.00
CC(C)n1c(O[C@@H]2C[C@H]3C(=O)N[C@]4(C(=O)NS(=O)(=O)N(C)C)C[C@H]4/C=C\CCCCC[C@H](N)C(=O)N3C2)nc2c(-c3csc(N4CCCCC4)n3)cccc21 [Compound 169]	< 7.00

###

target: NS3/NS4 complexes (Hepatitis C virus genotype 1a, UniProt P27958); test: biochemical; conditions: NS3-NS4 activity; 23° C., pH 7.5, 25 μM NS4A peptide; read-out: IC50
Sequence (P27958 1027-1657, one chain of several): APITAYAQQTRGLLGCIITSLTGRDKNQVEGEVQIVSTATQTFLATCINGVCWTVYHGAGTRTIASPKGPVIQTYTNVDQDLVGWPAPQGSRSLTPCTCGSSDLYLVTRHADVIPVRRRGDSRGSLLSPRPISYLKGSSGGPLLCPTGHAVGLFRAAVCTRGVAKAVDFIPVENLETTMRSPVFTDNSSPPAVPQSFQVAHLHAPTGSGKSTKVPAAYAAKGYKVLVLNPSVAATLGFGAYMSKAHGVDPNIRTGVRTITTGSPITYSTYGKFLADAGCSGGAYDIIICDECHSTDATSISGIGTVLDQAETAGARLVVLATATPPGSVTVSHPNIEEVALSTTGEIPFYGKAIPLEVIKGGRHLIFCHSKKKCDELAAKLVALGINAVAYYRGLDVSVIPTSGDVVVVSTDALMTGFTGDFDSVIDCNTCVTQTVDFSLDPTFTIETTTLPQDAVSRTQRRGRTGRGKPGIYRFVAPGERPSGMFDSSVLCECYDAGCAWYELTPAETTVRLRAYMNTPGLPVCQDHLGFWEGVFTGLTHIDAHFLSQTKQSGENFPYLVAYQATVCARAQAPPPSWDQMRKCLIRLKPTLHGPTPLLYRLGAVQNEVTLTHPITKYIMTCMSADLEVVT
Consider the following compounds and their measured IC50 readings.

Compound	IC50
CC(C)n1c(O[C@@H]2C[C@H]3C(=O)N[C@]4(C(=O)NS(=O)(=O)C5(C)CC5)C[C@H]4/C=C\CCCCC[C@H](N)C(=O)N3C2)nc2c(-c3nc(C4CCCCC4)cs3)cccc21 [Compound 178]	< 10 nM
CC(C)c1csc(-c2nc3c(c(O[C@@H]4C[C@H]5C(=O)N[C@]6(C(=O)NS(=O)(=O)C7(C)CC7)C[C@H]6/C=C\CCCCC[C@H](N)C(=O)N5C4)n2)CCCC3)n1 [Compound 304]	10 to 100 nM
CC(C)n1c(O[C@@H]2C[C@H]3C(=O)N[C@]4(C(=O)NS(=O)(=O)N(C)C)C[C@H]4/C=C\CCCCC[C@H](NC(=O)OC(C)(C)C)C(=O)N3C2)nc2c(-c3nc(Cc4cccc(C(F)(F)F)c4)cs3)cccc21 [Compound 149]	< 10 nM
CC(C)c1csc(-c2cc(O[C@@H]3C[C@H]4C(=O)N[C@]5(C(=O)NS(=O)(=O)C6(C)CC6)C[C@H]5/C=C\CCCCC[C@H](NC(=O)OC(C)(C)C)C(=O)N4C3)c3c(n2)CCCC3)n1 [Compound 406]	< 10 nM
COc1ccccc1-c1csc(-c2cccc3c2nc(O[C@@H]2C[C@H]4C(=O)N[C@]5(C(=O)NS(=O)(=O)C6(C)CC6)C[C@H]5/C=C\CCCCC[C@H](N)C(=O)N4C2)n3C(C)C)n1 [Compound 177]	< 10 nM
CC(C)n1c(O[C@@H]2C[C@H]3C(=O)N[C@]4(C(=O)NS(=O)(=O)N(C)C)C[C@H]4/C=C\CCCCC[C@H](NC(=O)OC(C)(C)C)C(=O)N3C2)nc2c(-c3csc(N4CCN(C)CC4)n3)cccc21 [Compound 160]	< 10 nM
CC(C)n1c(O[C@@H]2C[C@H]3C(=O)N[C@]4(C(=O)NS(=O)(=O)C5(C)CC5)C[C@H]4/C=C\CCCCC[C@H](NC(=O)OC(C)(C)C)C(=O)N3C2)nc2c(-c3nc(-c4cccc(Cl)c4)cs3)cccc21 [Compound 101]	< 10 nM
COc1ccc2c(O[C@@H]3C[C@H]4C(=O)N[C@]5(C(=O)NS(=O)(=O)C6(C)CC6)C[C@H]5/C=C\CCCCC[C@H](NC(=O)OC(C)(C)C)C(=O)N4C3)cc(C(C)C)nc2c1C [Compound 501]	< 10 nM
COc1cccc(-c2csc(-c3cccc4c3nc(O[C@@H]3C[C@H]5C(=O)N[C@]6(C(=O)NS(=O)(=O)C7(C)CC7)C[C@H]6/C=C\CCCCC[C@H](NC(=O)OC(C)(C)C)C(=O)N5C3)n4C(C)C)n2)c1 [Compound 103]	< 10 nM

###

molecular target: NS3/NS4 complexes (Hepatitis C virus genotype 1a); test: biochemical; details: NS3-NS4 activity; 23° C., pH 7.5, 25 μM NS4A peptide; read-out: IC50
Consider the following molecules and their measured IC50 readings.

Structure as smiles	IC50
COc1cccc(Cc2csc(-c3cccc4c3nc(O[C@@H]3C[C@H]5C(=O)N[C@]6(C(=O)NS(=O)(=O)N(C)C)C[C@H]6/C=C\CCCCC[C@H](NC(=O)OC(C)(C)C)C(=O)N5C3)n4C(C)C)n2)c1	< 10 nM
COc1cccc(-c2csc(-c3cccc4c3nc(O[C@@H]3C[C@H]5C(=O)N[C@]6(C(=O)NS(=O)(=O)N(C)C)C[C@H]6/C=C\CCCCC[C@H](NC(=O)OC(C)(C)C)C(=O)N5C3)n4C(C)C)n2)c1	< 10 nM
CC(C)n1c(O[C@@H]2C[C@H]3C(=O)N[C@]4(C(=O)NS(=O)(=O)N(C)C)C[C@H]4/C=C\CCCCC[C@H](NC(=O)OC(C)(C)C)C(=O)N3C2)nc2c(-c3nc(-c4ccc5c(c4)OCCO5)cs3)cccc21	< 10 nM
CC(C)n1c(O[C@@H]2C[C@H]3C(=O)N[C@]4(C(=O)NS(=O)(=O)C5(C)CC5)C[C@H]4/C=C\CCCCC[C@H](NC(=O)OC(C)(C)C)C(=O)N3C2)nc2c(-c3nc(-c4ccc(F)cc4F)cs3)cccc21	< 10 nM

###

test system: hepatitis C replicon; test: hepatitis C replicon EC50 assay; format: cell-based; details: Hepatitis C virus; hepatitis C replicon; read-out: EC50
pEC50: −log10 of the molar value.

Structure as smiles	pEC50
CC(C)c1csc(-c2cc(O[C@@H]3C[C@H]4C(=O)N[C@]5(C(=O)NS(=O)(=O)C6(C)CC6)C[C@H]5/C=C\CCCCC[C@H](NC(=O)OC(C)(C)C)C(=O)N4C3)ccn2)n1	> 8.00
CC(C)n1c(O[C@@H]2C[C@H]3C(=O)N[C@]4(C(=O)NS(=O)(=O)C5(C)CC5)C[C@H]4/C=C\CCCCC[C@H](NC(=O)OC(C)(C)C)C(=O)N3C2)nc2c(-c3nc(Cc4ccc(-c5ccccc5)cc4)cs3)cccc21	> 8.00
CC(C)n1c(O[C@@H]2C[C@H]3C(=O)N[C@]4(C(=O)NS(=O)(=O)C5(C)CC5)C[C@H]4/C=C\CCCCC[C@H](NC(=O)OC(C)(C)C)C(=O)N3C2)nc2c(-c3nc(Cc4ccc(OC(F)(F)F)cc4)cs3)cccc21	7.00 to 8.00
CC(C)n1c(O[C@@H]2C[C@H]3C(=O)N[C@]4(C(=O)NS(=O)(=O)C5(C)CC5)C[C@H]4/C=C\CCCCC[C@H](NC(=O)OC(C)(C)C)C(=O)N3C2)nc2c(-c3csc(N4CCCC4)n3)cccc21	> 8.00

###

target: NS3/NS4 complexes (Hepatitis C virus genotype 1a); assay: biochemical; conditions: NS3-NS4 activity; 23° C., pH 7.5, 25 μM NS4A peptide; read-out: IC50
pIC50: −log10 of the molar value.

Structure as smiles	pIC50
COc1ccc(Cc2csc(-c3cccc4c3nc(O[C@@H]3C[C@H]5C(=O)N[C@]6(C(=O)NS(=O)(=O)C7(C)CC7)C[C@H]6/C=C\CCCCC[C@H](NC(=O)OC(C)(C)C)C(=O)N5C3)n4C(C)C)n2)cc1	> 8.00
CC(C)n1c(O[C@@H]2C[C@H]3C(=O)N[C@]4(C(=O)NS(=O)(=O)N(C)C)C[C@H]4/C=C\CCCCC[C@H](NC(=O)OC(C)(C)C)C(=O)N3C2)nc2c(-c3nc(-c4ccc(F)cc4)cs3)cccc21	> 8.00
CC(C)n1c(O[C@@H]2C[C@H]3C(=O)N[C@]4(C(=O)NS(=O)(=O)C5(C)CC5)C[C@H]4/C=C\CCCCC[C@H](NC(=O)OC(C)(C)C)C(=O)N3C2)nc2c(-c3cncc(N4CCCC4)n3)cccc21	> 8.00
CC(C)n1c(O[C@@H]2C[C@H]3C(=O)N[C@]4(C(=O)NS(=O)(=O)N(C)C)C[C@H]4/C=C\CCCCC[C@H](NC(=O)OC(C)(C)C)C(=O)N3C2)nc2c(-c3nc(-c4ccc(C(F)(F)F)cc4)cs3)cccc21	> 8.00
CC(C)n1c(O[C@@H]2C[C@H]3C(=O)N[C@]4(C(=O)NS(=O)(=O)C5(C)CC5)C[C@H]4/C=C\CCCCC[C@H](NC(=O)OC(C)(C)C)C(=O)N3C2)nc2c(-c3nc(Cc4cccc(Br)c4)cs3)cccc21	> 8.00
CC(C)n1c(O[C@@H]2C[C@H]3C(=O)N[C@]4(C(=O)NS(=O)(=O)C5(C)CC5)C[C@H]4/C=C\CCCCC[C@H](NC(=O)OC(C)(C)C)C(=O)N3C2)nc2c(-c3cnccn3)cccc21	> 8.00
CC(C)(C)OC(=O)N[C@H]1CCCCC/C=C\[C@@H]2C[C@@]2(C(=O)NS(=O)(=O)C2(C)CC2)NC(=O)[C@@H]2C[C@@H](Oc3ncnc4c3CCCC4)CN2C1=O	> 8.00
CC(C)c1ccc(Cc2csc(-c3cccc4c3nc(O[C@@H]3C[C@H]5C(=O)N[C@]6(C(=O)NS(=O)(=O)C7(C)CC7)C[C@H]6/C=C\CCCCC[C@H](NC(=O)OC(C)(C)C)C(=O)N5C3)n4C(C)C)n2)cc1	> 8.00
CC#CC1(S(=O)(=O)NC(=O)[C@@]23C[C@H]2/C=C\CCCCC[C@H](NC(=O)OC(C)(C)C)C(=O)N2C[C@H](Oc4nc5c(-c6nc(C7CCCCC7)cs6)cccc5n4C(C)C)C[C@H]2C(=O)N3)CC1	> 8.00
